- MEASURED_TARGET: RGS2-FBXO44 interaction (Homo sapiens, UniProt P41220)
- Construct: expressed in transfected cells
- Sequence (P41220 whole entry): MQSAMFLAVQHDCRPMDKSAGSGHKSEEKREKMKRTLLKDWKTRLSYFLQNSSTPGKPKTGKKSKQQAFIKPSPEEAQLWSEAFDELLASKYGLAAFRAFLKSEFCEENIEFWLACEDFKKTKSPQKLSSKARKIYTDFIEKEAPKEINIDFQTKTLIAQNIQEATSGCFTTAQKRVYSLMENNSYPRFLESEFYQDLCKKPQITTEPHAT
- TEST_PROTOCOL: RGS2-FBXO44 NanoBit assay (HEK-293T RGS2-SmBiT/LgBiT-FBXO44 stable clone #6)
- Assay type: cell-based
- EXPERIMENTAL_PARAMETERS: concentrations 500 to 0.01 μM; RLU normalized to viability (RFU); read-out: IC50 (μM), inhibition of RGS2-FBXO44 NanoBit signal
MEASURED_ENDPOINT: IC50
Please state the value followed by its unit.

Example entries begin here.
[
  {
    "SMILES_REPRESENTATION": "Cc1nc(N2CCN(C(=O)c3cccc(N(C)C)c3)CC2)cc(C(F)(F)F)n1",
    "MEASURED_TARGET": "RGS2-FBXO44 interaction (Homo sapiens, UniProt P41220)",
    "DATA_VALUE": "72.2 µM"
  },
  {
    "SMILES_REPRESENTATION": "CSc1ccccc1C(=O)NCc1cc(C2CC2)n(C2CCCC2)n1",
    "MEASURED_TARGET": "RGS2-FBXO44 interaction (Homo sapiens, UniProt P41220)",
    "DATA_VALUE": "88.1 µM"
  }
]

Now turn to the next molecule.
Lookup: Give the measured IC50 of Cc1cc(N2CCCC2)nc(N2CCN(C(=O)c3ccccc3C)CC2)n1 .
Found: 78.9 µM

Reference source for all entries: paper PMC13095444
